Data origin: patent US20220387457A1

Assay: Plasma pharmacokinetics, 28-day topical ophthalmic dosing in beagle dogs
Conditions: male, beagle, dog, in vivo, topical or ocular, 0.2 mg/kg

Compound: CC1(C)Oc2ccc(C#N)cc2[C@@H](N2CCCC2=O)[C@@H]1OP(=O)(O)O
Tmax, h: 1

* * *

Experiment: Toxicokinetics after escalating intravenous doses of CKLP1 in beagles
Assay type: in vivo, beagle dog
Conditions: female, beagle, dog, in vivo, iv, 3 mg/kg
Endpoint Label: Vd (L/kg)

Compound: CC1(C)Oc2ccc(C#N)cc2[C@@H](N2CCCC2=O)[C@@H]1OP(=O)(O)O
Endpoint Label: Vd
Units Text: L/kg
Recorded Number: 0.099

* * *

Test: Toxicokinetics after escalating intravenous doses of CKLP1 in beagles
Assay type: in vivo, beagle dog
Conditions: male, beagle, dog, in vivo, iv, 1.5 mg/kg
Endpoint Label: AUC(0-t) (ng·h/mL)

Compound: CC1(C)Oc2ccc(C#N)cc2[C@@H](N2CCCC2=O)[C@@H]1OP(=O)(O)O [CKLP1]
Units Text: ng·h/mL
Recorded Number: 43200
